# Test system: SN12C renal
# measurement.notes: NCI-60 one-dose screen, 48 h (100 = growth as untreated, 0 = no growth, -100 = all killed)
# measurement.parameters: 10 µM unless noted
The panel holds about 83,000 compounds, 20% with a hit somewhere; the sample as a whole holds those more often. The source made the active and inactive calls. How the source made its calls: active means growth percent below 10; inactive means the rest.

[
  {
    "compound": "O=C1c2ccccc2C(=O)c2c1oc1ccc3ccccc3c21",
    "growth": "83.2% (inactive)"
  },
  {
    "compound": "Nc1nc(N)c2cc(CNc3ccc(Cl)c(Cl)c3)ccc2n1",
    "growth": "27.4% (inactive)"
  },
  {
    "compound": "COc1ccc(C(=O)C(C#N)c2cc(OC)c(OC)c(OC)c2)cc1 (stereo unspecified)",
    "growth": "109% (inactive)"
  },
  {
    "compound": "CNC(=O)c1cc(Oc2ccc(NC(=O)c3nc(S(C)(=O)=O)sc3-c3ccc(F)cc3)cc2)ccn1",
    "growth": "97.5% (inactive)"
  },
  {
    "compound": "COc1cc2c(cc1C)NC(=O)/C2=C\\c1c[nH]c2ccccc12",
    "growth": "67.8% (inactive)"
  },
  {
    "compound": "CC(=O)Nc1nonc1-c1nc2ccccc2n1Cc1ccc(C(C)(C)C)cc1",
    "growth": "82.2% (inactive)"
  },
  {
    "compound": "O=C(Nc1cccc(Cl)c1)Nc1cc(C(F)(F)F)ccc1Cl",
    "growth": "-24.4% (active)"
  },
  {
    "compound": "COc1cc(C2Nc3ccccc3S2)cc(CN2CCOCC2)c1O (stereo unspecified)",
    "growth": "91.9% (inactive)"
  },
  {
    "compound": "Cc1ccc(O)c(Cc2ccccc2)c1",
    "growth": "90.3% (inactive)"
  },
  {
    "compound": "COS(=O)(=O)CCN(CCOS(C)(=O)=O)S(C)(=O)=O",
    "growth": "98.1% (inactive)"
  },
  {
    "compound": "CCCCCc1c(C)[nH]c(/C=C2\\N=C(c3ccc[nH]3)C=C2CC)c1C",
    "growth": "-89.9% (active)"
  }
]
